Molecular target: T1, hen egg-white lysozyme (hen, UniProt P00698 19-147)
T1 construct: also called HEL
T1 sequence (P00698 19-147): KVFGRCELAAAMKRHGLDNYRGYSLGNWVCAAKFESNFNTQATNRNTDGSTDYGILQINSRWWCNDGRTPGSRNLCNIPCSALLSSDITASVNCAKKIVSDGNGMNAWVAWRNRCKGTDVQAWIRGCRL
Test: Biacore kinetics, HEL immobilised on CM5 chip, buffer E (reducing), 25 °C, 1:1 Langmuir model
Provide the reported kon of each item.
One number for each entry, in M⁻¹ s⁻¹.

Request: Hello, please tell me recorded kon for this one: H4S(K24C) (not conjugated) (designed binder, Free cysteine mutant, measured in reducing conditions) MRGSHHHHHHGSVKVKFFWNGEEKEVDTSKIVWVCRAGKSVLFIYDDNGKNGYGDVTEKDAPKELLDMLARAEREKKLN
Response: 160000

Would you mind listing kon for each of the following binders?
1. H4S cysteine mutant W8C (not conjugated) (designed binder, Free cysteine mutant, measured in reducing conditions) MRGSHHHHHHGSVKVKFFCNGEEKEVDTSKIVWVKRAGKSVLFIYDDNGKNGYGDVTEKDAPKELLDMLARAEREKKLN
2. H4S cysteine mutant K39C (not conjugated) (designed binder, Free cysteine mutant, measured in reducing conditions) MRGSHHHHHHGSVKVKFFWNGEEKEVDTSKIVWVKRAGKSVLFIYDDNGCNGYGDVTEKDAPKELLDMLARAEREKKLN

Response:
1: 450000; 2: 310000
